measurement-target: human type 1 5α-reductase (Homo sapiens, UniProt P18405)
Sequence (P18405 whole entry): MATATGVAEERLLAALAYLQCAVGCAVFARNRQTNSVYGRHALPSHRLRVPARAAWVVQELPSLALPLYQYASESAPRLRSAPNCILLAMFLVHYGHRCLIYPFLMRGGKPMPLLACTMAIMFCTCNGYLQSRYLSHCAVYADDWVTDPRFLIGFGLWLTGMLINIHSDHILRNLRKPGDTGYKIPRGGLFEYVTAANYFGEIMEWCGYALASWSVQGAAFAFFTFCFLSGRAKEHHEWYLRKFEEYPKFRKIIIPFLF
protocol-text: 5α-reductase in vitro inhibitory activity, human type 1
pIC50: −log10 of the molar value.
value-type: pIC50

Past entries and their recorded results:
>>> result("CC(C)(C)c1ccccc1NC(=O)[C@H]1CC[C@H]2[C@@H]3CNC4=CC(=O)CC[C@]4(C)[C@H]3CC[C@]12C")
"7.00 to 8.00"
>>> result("CCN(CC)C(=O)c1ccc(C(C)(C)C)c(NC(=O)[C@H]2CC[C@H]3[C@@H]4CNC5=CC(=O)CC[C@]5(C)[C@H]4CC[C@]23C)c1")
"> 8.00"
>>> result("CC(C)(C)c1ccc(NC(=O)[C@H]2CC[C@H]3[C@@H]4CNC5=CC(=O)CC[C@]5(C)[C@H]4CC[C@]23C)c([N+](=O)[O-])c1")
"> 8.00"

Enquiry: API: value(readout=pIC50, system=human type 1 5α-reductase (Homo sapiens, UniProt P18405)) for record "CC(C)(C)c1ccc(Br)cc1NC(=O)[C@H]1CC[C@H]2[C@@H]3CNC4=CC(=O)CC[C@]4(C)[C@H]3CC[C@]12C"
Return: > 8.00

Enquiry: Requested read-out pIC50, target or system human type 1 5α-reductase (Homo sapiens, UniProt P18405), entry "CC1=C2NC[C@H]3[C@@H]4CC[C@H](C(=O)NC5(c6ccc(Cl)cc6)CCCC5)[C@@]4(C)CC[C@@H]3[C@@]2(C)CCC1=O"
Return: > 8.00

Enquiry: Item: "CC(C)(C)c1cc(Br)ccc1NC(=O)[C@H]1CC[C@H]2[C@@H]3CNC4=CC(=O)CC[C@]4(C)[C@H]3CC[C@]12C" Test system: human type 1 5α-reductase (Homo sapiens, UniProt P18405) Read-out: pIC50 Value: ?
Return: > 8.00
